From: patent EP0571593B1

Below: a set of entries, each annotated with reported % Iodine.
- assay_explanation: Iodine content
- Assay type: physicochemical
result_type: % Iodine

- O=C(CN(CCO)C(=O)c1c(I)c(NC(=O)CO)c(I)c(C(=O)NCC(O)CO)c1I)Nc1c(I)c(C(=O)NCCO)c(I)c(C(=O)NCCO)c1I (centres unmarked): 53,7%
- COCC(=O)Nc1c(I)c(C(=O)NCC(O)CO)c(I)c(C(=O)N(CC(=O)N(C)c2c(I)c(C(=O)NCC(O)CO)c(I)c(C(=O)NCC(O)CO)c2I)CC(O)COC)c1I (centres unmarked): 49,1%
- O=C(CO)Nc1c(I)c(C(=O)NCC(=O)Nc2c(I)c(C(=O)NC(CO)C(O)CO)c(I)c(C(=O)NC(CO)C(O)CO)c2I)c(I)c(C(=O)NCC(O)CO)c1I (centres unmarked): 51%
- CN(C(=O)CNC(=O)c1c(I)c(NC(=O)CO)c(I)c(C(=O)NCC(O)CO)c1I)c1c(I)c(C(=O)NC(CO)C(O)CO)c(I)c(C(=O)NC(CO)C(O)CO)c1I (centres unmarked): 50,5%
- CN(CC(=O)N(C)c1c(I)c(C(=O)NC(CO)C(O)CO)c(I)c(C(=O)NC(CO)C(O)CO)c1I)C(=O)c1c(I)c(NC(=O)CO)c(I)c(C(=O)NCC(O)CO)c1I (centres unmarked): 50%
- CC(=O)Nc1c(I)c(C(=O)NCC(O)CO)c(I)c(C(=O)N(CC(=O)Nc2c(I)c(C(=O)NCC(O)CO)c(I)c(C(=O)NCC(O)CO)c2I)CC(O)CO)c1I (centres unmarked): 51%
- CC(=O)Nc1c(I)c(C(=O)NCC(O)CO)c(I)c(C(=O)N(C)CC(=O)N(C)c2c(I)c(C(=O)N(CCO)CC(O)CO)c(I)c(C(=O)N(CCO)CC(O)CO)c2I)c1I (centres unmarked): 49,6%
- COCC(=O)N(CCO)c1c(I)c(C(=O)NCC(O)CO)c(I)c(C(=O)N(CCO)CC(=O)N(CCO)c2c(I)c(C(=O)NCCO)c(I)c(C(=O)NCCO)c2I)c1I (centres unmarked): 50%
- CC(=O)Nc1c(I)c(C(=O)NCC(O)CO)c(I)c(C(=O)N(CC(=O)N(C)c2c(I)c(C(=O)NCC(O)CO)c(I)c(C(=O)NCC(O)CO)c2I)CC(O)CO)c1I (centres unmarked): 50,5%
- O=C(CO)Nc1c(I)c(C(=O)NCC(=O)Nc2c(I)c(C(=O)NCC(O)CO)c(I)c(C(=O)NCC(O)CO)c2I)c(I)c(C(=O)NCC(O)CO)c1I (centres unmarked): 53,1%
- COCC(=O)Nc1c(I)c(C(=O)NCC(=O)N(C)c2c(I)c(C(=O)NCC(O)CO)c(I)c(C(=O)NCC(O)CO)c2I)c(I)c(C(=O)NCC(O)CO)c1I (centres unmarked): 51,6%

---

- assay_explanation: Viscosity of aqueous solutions
- Type: physicochemical
- protocol_conditions: 30°C, 300mg I/ml
result_type: Viscosity mPa s (30°C) at 300mg I/ml

• COCC(=O)Nc1c(I)c(C(=O)NCC(O)CO)c(I)c(C(=O)N(CCO)CC(=O)Nc2c(I)c(C(=O)NC(CO)C(O)CO)c(I)c(C(=O)NC(CO)C(O)CO)c2I)c1I (centres unmarked) [EXAMPLE 22] = 10,0 mPa s
• CN(C(=O)CNC(=O)c1c(I)c(NC(=O)CO)c(I)c(C(=O)NCC(O)CO)c1I)c1c(I)c(C(=O)NC(CO)C(O)CO)c(I)c(C(=O)NC(CO)C(O)CO)c1I (centres unmarked) [EXAMPLE 3] = 9,3 mPa s
• COCC(=O)Nc1c(I)c(C(=O)NCC(=O)N(C)c2c(I)c(C(=O)NC(CO)C(O)CO)c(I)c(C(=O)NC(CO)C(O)CO)c2I)c(I)c(C(=O)NCC(O)CO)c1I (centres unmarked) [EXAMPLE 4] = 9,4 mPa s
• CC(=O)Nc1c(I)c(C(=O)NCC(O)CO)c(I)c(C(=O)N(C)CC(=O)N(C)c2c(I)c(C(=O)N(CCO)CC(O)CO)c(I)c(C(=O)N(CCO)CC(O)CO)c2I)c1I (centres unmarked) [EXAMPLE 42] = 8,8 mPa s
• CN(CC(O)CO)C(=O)c1c(I)c(NC(=O)CNC(=O)c2c(I)c(NC(=O)CO)c(I)c(C(=O)NCC(O)CO)c2I)c(I)c(C(=O)N(C)CC(O)CO)c1I (centres unmarked) [EXAMPLE 2] = 8,4 mPa s
